These entries and their values trace back to patent US20120321591A1.

Target Entity: T1, human angiopoietin-2 protein (human, UniProt O15123 19-496)
T1 construct: also called Ang-2; Ang2
T1 sequence (looked up): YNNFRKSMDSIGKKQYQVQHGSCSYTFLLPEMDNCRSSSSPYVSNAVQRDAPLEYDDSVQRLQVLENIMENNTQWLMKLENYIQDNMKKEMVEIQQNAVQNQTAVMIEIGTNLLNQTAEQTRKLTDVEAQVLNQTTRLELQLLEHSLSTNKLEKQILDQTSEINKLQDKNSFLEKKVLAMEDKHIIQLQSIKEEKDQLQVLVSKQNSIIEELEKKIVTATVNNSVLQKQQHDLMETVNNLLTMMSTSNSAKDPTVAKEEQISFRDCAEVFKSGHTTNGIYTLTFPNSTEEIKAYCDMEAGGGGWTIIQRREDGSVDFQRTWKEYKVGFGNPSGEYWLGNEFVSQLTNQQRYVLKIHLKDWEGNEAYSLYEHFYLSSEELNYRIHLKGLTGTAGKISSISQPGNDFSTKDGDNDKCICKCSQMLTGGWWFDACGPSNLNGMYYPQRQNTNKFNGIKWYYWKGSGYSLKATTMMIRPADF
Procedure Text: competitive ELISA: Tie-2-Fc binding to coated Ang-2; peptide alone
Procedure: Plates were washed three times with washing buffer (0.1% Tween 20, PBS, pH 7.4) and blocked with Superblock (Scytek), […] at room temperature (“RT”) for 1 hour. […] Plates were washed 3 times with washing buffer. […] Following incubation, 50 ul of 1:5,000 dilution of goat anti-mouse IgG-HRP in Superblock was then added and incubated at RT for one hour. […] Color development was monitored and stopped with 25 μl of 2 M H₂SO₄. OD450 nm with a correction wavelength of 540 nm was measured.
Where no end group is shown, it is not given here.
Assay Readout: IC50 (nM)
Numbers only, in nM.

Parameters: items (list). Returns: IC50 for each item.
1. QKYQPLDELDKTLYDQFMLQQG-NH2 (also: N-terminal acyl cap) [Compound 4021]
2. QXYQPLDELDKTLYDQFMLQQG (N-terminal acyl cap; C-terminal amino cap; Kac 2) [Compound 4022]
3. QNYQPLDELDKTLYDQFMLQQG-NH2 (also: N-terminal acyl cap) [Compound 4023]

Response line:
25.8
41.9
27.8
